Listed next: entries and their corresponding koff.
Target: T1, Cyno RGMa-His (cynomolgus monkey, UniProt Q9N0A6 54-431, limits assumed)
T1 construct: also called cynomolgus (cyno) monkey RGMa (BIAcore); not shown: His tag
T1 sequence (looked up): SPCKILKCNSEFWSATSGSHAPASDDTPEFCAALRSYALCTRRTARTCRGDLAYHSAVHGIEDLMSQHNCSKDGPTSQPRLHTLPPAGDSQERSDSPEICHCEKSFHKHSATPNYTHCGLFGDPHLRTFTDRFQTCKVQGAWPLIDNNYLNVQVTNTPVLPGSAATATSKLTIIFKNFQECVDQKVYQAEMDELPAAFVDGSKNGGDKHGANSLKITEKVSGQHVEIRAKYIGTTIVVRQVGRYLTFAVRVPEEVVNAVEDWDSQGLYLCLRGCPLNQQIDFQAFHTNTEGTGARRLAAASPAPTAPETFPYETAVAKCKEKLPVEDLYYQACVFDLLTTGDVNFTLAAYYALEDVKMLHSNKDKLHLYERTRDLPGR
Assay: BIAcore
Give your result in s⁻¹ as a bare value.

AE12-1-V (antibody, V domains shown, AE12-1 variant; read as AE12-1-V from the order of the variants; IgG) VH: EVQLVQSGAEVKKPGASVKVSCKASGYTFTSHGISWVRQAPGQGLDWMGWISPYSGNTNYAQKLQGRVTMTTDTSTSTAYMELSSLRSEDTAVYYCARVGSGPYYYMDVWGQGTLVTVSS VL: QSALTQPRSVSGSPGQSVTISCTGTSSSVGDSIYVSWYQQHPGKAPKLMLYDVTKRPSGVPDRFSGSKSGNTASLTISGLQAEDEADYYCVSYAGTDTLFGGGTKVTVL : 0.00099
AE12-1-H (antibody, V domains shown, AE12-1 variant; IgG) VH: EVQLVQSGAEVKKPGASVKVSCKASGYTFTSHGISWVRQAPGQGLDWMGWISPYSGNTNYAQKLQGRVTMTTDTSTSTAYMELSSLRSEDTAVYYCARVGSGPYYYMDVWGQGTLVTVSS VL: QSALTQPRSVSGSPGQSVTISCTGTSSSVGDSIYVSWYQQHPGKAPKLMLYDVTKRPSGVPDRFSGSKSGNTASLTISGLQAEDEADYYCHSYAGTDTLFGGGTKVTVL : 0.00063

Attention now shifts to the item below.
Tell us which koff value is on record for AE12-1-L (antibody, V domains shown, AE12-1 variant; IgG; also called AE-12-L) VH: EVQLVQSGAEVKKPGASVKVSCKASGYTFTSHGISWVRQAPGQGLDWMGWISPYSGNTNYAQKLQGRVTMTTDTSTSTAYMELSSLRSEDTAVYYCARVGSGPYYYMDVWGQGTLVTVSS VL: QSALTQPRSVSGSPGQSVTISCTGTSSSVGDSIYVSWYQQHPGKAPKLMLYDVTKRPSGVPDRFSGSKSGNTASLTISGLQAEDEADYYCLSYAGTDTLFGGGTKVTVL 0.00067
